Listed compounds paired with reported GI50
tested on: TK-10; experiment: NCI tumour cell line growth inhibition, 48 h
Calls of active or inactive are those of the source. Cut-off read from the data, not from the text of the source: active = GI50 up to about 1.1 µM and inactive = higher.

- COC(=S)OC1CC(n2cnc3c(N)ncnc32)OC1CO[Si](C)(C)C(C)(C)C (centres undefined): 33.3 µM (inactive)
- CC(=O)OC1(C(C)=O)CC2(c3ccccc3)OC1(c1ccccc1)c1ccccc12 (centres undefined): 17.6 µM (inactive)
- COc1ccc(N(C)Sc2ccccc2)cc1: > 100 µM (inactive)
- CC(=O)OC1CC2(C)C(=CC1C1SCCS1)CCC1C2CCC2(C)C(OC(C)=O)CCC12 (centres undefined): 64.1 µM (inactive)
- CC(C)(C)C1CC[C@H]2c3c([nH]c4ccccc34)[C@H]3C(=O)N(c4ccc(F)cc4)C(=O)[C@H]3[C@H]2C1 (some centres undefined): 16.3 µM (inactive)

GI50 for TK-10 with input O=C(NCc1cccnc1)C1COc2cc(-c3cc(=O)c4ccccc4o3)ccc2O1 (centres undefined) equals > 57.9 µM (inactive)

GI50 for TK-10 with input Cc1ccc(S(=O)(=O)c2c(N)n(CCN(C)C)c3nc4ccccc4nc23)cc1 equals 99.8 µM (inactive)

GI50 for TK-10 with input CSCCCNC(=O)c1csc(-c2csc(CCNC(=O)CNC(=O)OC(C)(C)C)n2)n1 equals > 100 µM (inactive)

GI50 for TK-10 with input COc1cc2c(cc1OC)[C@H]1C(=O)c3cc4c(cc3[C@H]1N(C)C2=O)OCO4 equals > 100 µM (inactive)

These data points were gathered from ChEMBL document CHEMBL1201862.
